target-system: Melanocortin receptor 3 (Homo sapiens)
Sequence (P41968 whole entry): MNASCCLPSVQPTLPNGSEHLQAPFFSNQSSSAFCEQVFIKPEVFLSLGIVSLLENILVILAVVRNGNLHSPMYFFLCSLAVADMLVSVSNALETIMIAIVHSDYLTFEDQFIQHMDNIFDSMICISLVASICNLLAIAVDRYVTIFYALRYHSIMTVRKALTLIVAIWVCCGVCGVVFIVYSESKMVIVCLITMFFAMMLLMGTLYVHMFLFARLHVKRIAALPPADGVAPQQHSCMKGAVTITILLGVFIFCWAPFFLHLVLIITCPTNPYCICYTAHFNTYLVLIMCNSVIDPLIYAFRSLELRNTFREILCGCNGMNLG
protocol-text: Binding affinity to human recombinant melanocortin MC3 receptor
pIC50: −log10 of the molar value.
parameter-measured: pIC50

`C[C@H]1Cc2c([nH]c3cc(Cl)c(F)cc23)[C@@]2(N1)C(=O)Nc1ccc(Cl)cc12` has a reported pIC50 of < 4.52

---

target-system: Sodium-dependent serotonin transporter (Homo sapiens)
Sequence (P31645 whole entry): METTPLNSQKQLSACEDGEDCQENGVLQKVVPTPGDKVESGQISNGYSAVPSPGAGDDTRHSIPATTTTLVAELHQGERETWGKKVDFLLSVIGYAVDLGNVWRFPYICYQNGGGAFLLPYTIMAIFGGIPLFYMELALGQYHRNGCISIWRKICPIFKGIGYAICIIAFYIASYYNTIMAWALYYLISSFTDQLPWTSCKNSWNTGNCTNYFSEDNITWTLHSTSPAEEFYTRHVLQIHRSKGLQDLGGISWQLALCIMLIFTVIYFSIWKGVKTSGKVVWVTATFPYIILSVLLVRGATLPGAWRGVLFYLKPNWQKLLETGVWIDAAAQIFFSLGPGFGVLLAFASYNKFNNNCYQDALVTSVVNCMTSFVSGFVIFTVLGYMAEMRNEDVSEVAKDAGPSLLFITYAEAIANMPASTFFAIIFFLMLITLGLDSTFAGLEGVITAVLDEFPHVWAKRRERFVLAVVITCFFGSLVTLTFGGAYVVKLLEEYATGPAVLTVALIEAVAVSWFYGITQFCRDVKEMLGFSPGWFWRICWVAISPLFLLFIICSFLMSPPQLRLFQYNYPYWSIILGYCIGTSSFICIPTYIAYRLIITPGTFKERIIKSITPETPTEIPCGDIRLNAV
protocol-text: Binding affinity to human recombinant serotonin transporter
parameter-measured: IC50

Bench note, Sodium-dependent serotonin transporter (Homo sapiens): entry `C[C@H]1Cc2c([nH]c3cc(Cl)c(F)cc23)[C@@]2(N1)C(=O)Nc1ccc(Cl)cc12` , its IC50 = > 10 µM
